Measured values drawn from paper PMC7765930 for this set.

Tested on: T-47D ductal carcinoma cell line
Test protocol: MTT antiproliferative assay, T47D
Assay type: cell-based, human
Condition parameters: 72 h, 100–0.19 μM, read-out: IC50 (µM) ± SD T47D
Readout label: IC50 (µM)
Provide only the numeric value, understood in µM.

Please review the following examples before continuing.
- Compound: "C=CC1=C(C)C(=O)C=C2CCC3=C(C=CC(=O)C3(C)OCC)C21OCC (stereo not drawn)"
  Target or test system: "T-47D ductal carcinoma cell line"
  Units symbol: "µM"
  IC50: 30.3
- Compound: "N.N.[Cl][Pt][Cl] [Cisplatin, cisplatin, reference compound]"
  Target or test system: "T-47D ductal carcinoma cell line"
  Units symbol: "µM"
  IC50: 5.9

Now for the compound whose IC50 we want.
Query for T-47D ductal carcinoma cell line: what IC50 does the record show for C=CC1=CC(=O)C=C2CCC3=C(C=CC(=O)C3(C)OCC)C12OCC (stereo not drawn) ?
14.2
